Target: human ALK2 R206H (Homo sapiens, UniProt Q04771, R206H)
Construct: expressed in transfected cells; host or cells: HEK293 (ATCC CRL1573), lentivirus transduction, blasticidin selection
Sequence (Q04771 21-509 R206H): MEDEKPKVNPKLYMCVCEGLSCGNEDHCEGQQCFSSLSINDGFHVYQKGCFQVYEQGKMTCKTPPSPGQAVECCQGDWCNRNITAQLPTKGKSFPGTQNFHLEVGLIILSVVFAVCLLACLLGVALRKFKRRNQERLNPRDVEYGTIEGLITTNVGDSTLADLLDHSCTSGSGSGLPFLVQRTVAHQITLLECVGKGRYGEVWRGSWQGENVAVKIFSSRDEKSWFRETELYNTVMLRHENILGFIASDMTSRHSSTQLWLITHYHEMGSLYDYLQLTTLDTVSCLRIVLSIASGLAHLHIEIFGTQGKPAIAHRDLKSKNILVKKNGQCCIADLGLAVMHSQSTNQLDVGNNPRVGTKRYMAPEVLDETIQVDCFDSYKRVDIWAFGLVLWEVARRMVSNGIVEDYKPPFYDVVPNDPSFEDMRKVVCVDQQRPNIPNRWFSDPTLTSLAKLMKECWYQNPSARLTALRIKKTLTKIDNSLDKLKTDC
Assay: Cell-based ALK2-R206H cell activity assay (Smad1-Ser463/Ser465 phosphorylation by AlphaLISA in HEK293-ALK2-R206H cells)
Details: read-out: Cell Line (Cell Assay IC50)
pIC50: −log10 of the molar value.
ASSAY ENDPOINT: pIC50

Field: example entries. Status: answers known.
[
  {
    "COMPOUND": "CCOC(=O)N1CCN(c2ccnn3cc(-c4ccc([C@H]5CCCN(C(C)C)C5)cn4)cc23)CC1",
    "pIC50": "> 7.00"
  },
  {
    "COMPOUND": "O=C([C@@H]1C[C@H]1F)N1CCN(c2ccnn3cc(-c4ccc(N5CCNCC5)nc4)cc23)CC1",
    "pIC50": "6.30 to 7.00"
  },
  {
    "COMPOUND": "Cc1cc([C@H]2CCN(C(C)C)C2)ccc1-c1cc2c(N3CCN(C(=O)C4CC4)CC3)ccnn2c1",
    "pIC50": "6.30 to 7.00"
  },
  {
    "COMPOUND": "CCOC(=O)N1CCN(c2ccnn3cc(-c4ccc(C5CCN(C(C)C)CC5)c(F)c4)cc23)CC1",
    "pIC50": "> 7.00"
  },
  {
    "COMPOUND": "CC(C)NC(=O)N1CCN(c2ccnn3cc(-c4ccc([C@]5(C)CN(C(C)C)CCN5)cc4)cc23)CC1",
    "pIC50": "> 7.00"
  },
  {
    "COMPOUND": "CCN1CC[C@@H](c2ccc(-c3cc4c(N5CCN(C(=O)C6CC6)CC5)ccnn4c3)cc2)C1",
    "pIC50": "> 7.00"
  }
]

As a next step, examine the compound that follows.
[Q] Which value of pIC50 has been reported for CC(C)N1CCC(c2ccc(-c3cc4c(N5CCN(C(=O)C6CC6)CC5)ccnn4c3)cc2)C1 (stereo not shown) in the records?
[A] > 7.00

###

Each entry below lists one item and its recorded IC50 value.
Molecular target: ALK2 R206H (GST-tagged mutant ALK2) (Homo sapiens, UniProt Q04771, R206H)
Construct: purchased Carna Bioscience or ThermoFisher 09-148 or PV6232
Sequence (Q04771 21-509 R206H): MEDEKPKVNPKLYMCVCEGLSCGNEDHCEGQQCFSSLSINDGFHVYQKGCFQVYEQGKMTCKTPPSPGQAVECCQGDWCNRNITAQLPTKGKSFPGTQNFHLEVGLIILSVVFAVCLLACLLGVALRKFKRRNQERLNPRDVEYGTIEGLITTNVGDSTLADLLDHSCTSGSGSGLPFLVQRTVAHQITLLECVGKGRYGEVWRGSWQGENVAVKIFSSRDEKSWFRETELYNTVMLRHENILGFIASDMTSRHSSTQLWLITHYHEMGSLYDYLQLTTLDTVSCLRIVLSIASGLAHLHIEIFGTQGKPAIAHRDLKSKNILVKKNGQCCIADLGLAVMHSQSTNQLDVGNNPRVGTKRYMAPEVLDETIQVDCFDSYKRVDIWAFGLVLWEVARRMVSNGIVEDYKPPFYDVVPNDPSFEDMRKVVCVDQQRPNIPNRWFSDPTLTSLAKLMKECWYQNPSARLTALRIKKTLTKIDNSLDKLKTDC
Experiment: ALK binding assay (LANTHASCREEN TR-FRET competitive binding, displacement of Kinase Tracer 178)
Settings: ALK2 R206H, LANTHASCREEN TR-FRET competitive binding; read-out: Binding Assay (IC50)

Field: example entries. Status: answers known.
[
  {
    "COMPOUND": "CCOC(=O)N1CCN(c2ccnn3cc(-c4ccc(C5CCN(C(C)C)CC5)cc4Cl)cc23)CC1",
    "ASSAYED SYSTEM": "ALK2 R206H (GST-tagged mutant ALK2) (Homo sapiens, UniProt Q04771, R206H)",
    "RESULT": "< 10 nM"
  },
  {
    "COMPOUND": "O=C(C1CC(F)C1)N1CCN(c2ccnn3cc(-c4ccc(N5CCNCC5)cc4)cc23)CC1 (stereo not shown)",
    "ASSAYED SYSTEM": "ALK2 R206H (GST-tagged mutant ALK2) (Homo sapiens, UniProt Q04771, R206H)",
    "RESULT": "< 10 nM"
  },
  {
    "COMPOUND": "CCN1C[C@@H]2CN(c3ccnn4cc(-c5ccc(N6CCN(C(C)C)CC6)cc5)cc34)CCN2C1=O",
    "ASSAYED SYSTEM": "ALK2 R206H (GST-tagged mutant ALK2) (Homo sapiens, UniProt Q04771, R206H)",
    "RESULT": "< 10 nM"
  },
  {
    "COMPOUND": "CCS(=O)(=O)c1ccc(-c2cc3c(N4CCN(C(=O)C5CC5)CC4)ccnn3c2)cc1",
    "ASSAYED SYSTEM": "ALK2 R206H (GST-tagged mutant ALK2) (Homo sapiens, UniProt Q04771, R206H)",
    "RESULT": "< 10 nM"
  },
  {
    "COMPOUND": "O=C(C1CC1)N1CCN(c2ccnn3cc(-c4ccc(N5CCN(C6COC6)CC5)cc4)cc23)CC1",
    "ASSAYED SYSTEM": "ALK2 R206H (GST-tagged mutant ALK2) (Homo sapiens, UniProt Q04771, R206H)",
    "RESULT": "10 to 50 nM"
  },
  {
    "COMPOUND": "CCOC1(c2ccc(-c3cc4c(N5CCN(C(=O)OC6(C)COC6)CC5)ccnn4c3)nc2)CCN(C(C)C)CC1",
    "ASSAYED SYSTEM": "ALK2 R206H (GST-tagged mutant ALK2) (Homo sapiens, UniProt Q04771, R206H)",
    "RESULT": "< 10 nM"
  }
]

As a next step, examine the compound that follows.
[Q] Which value of IC50 has been reported for CCN1CCC(c2ccc(-c3cc4c(N5CCN(C(=O)N6CC(C#N)C6)[C@H](C)C5)ccnn4c3)cc2)CC1 in the records?
[A] < 10 nM

###

Target: human ALK2 R206H (Homo sapiens, UniProt Q04771, R206H)
Construct: expressed in transfected cells; host or cells: HEK293 (ATCC CRL1573), lentivirus transduction, blasticidin selection
Assay: Cell-based ALK2-R206H cell activity assay (Smad1-Ser463/Ser465 phosphorylation by AlphaLISA in HEK293-ALK2-R206H cells)
Settings: read-out: Cell Line (Cell Assay IC50)
pIC50: −log10 of the molar value.
Each entry below lists one item and its recorded pIC50 value.

[
  {
    "MOLECULE": "CCOC(=O)N1CCN(c2ccnn3cc(-c4ccc(C5(C)CCN(C(C)C)CC5)cc4)cc23)CC1",
    "pIC50": "> 7.00"
  },
  {
    "MOLECULE": "COCC(C)N1CCC(OC)(c2ccc(-c3cc4c(N5CCN(C(=O)C6CC6)CC5)ccnn4c3)nc2)CC1 (stereo not shown)",
    "pIC50": "> 7.00"
  },
  {
    "MOLECULE": "CC(C)N1CCN[C@@](C)(c2ccc(-c3cc4c(N5CCN(C(=O)C6CC6)CC5)ccnn4c3)nc2)C1",
    "pIC50": "> 7.00"
  },
  {
    "MOLECULE": "CC(=O)N1CCC(c2ccc(-c3cc4c(N5CCN(C(=O)C6CC6)CC5)ccnn4c3)cc2)CC1",
    "pIC50": "6.30 to 7.00"
  },
  {
    "MOLECULE": "CCNC(=O)N1CCN(c2ccnn3cc(-c4ccc(N5CCN(C(C)C)CC5)cn4)cc23)CC1",
    "pIC50": "> 7.00"
  }
]

[Q] Which value of pIC50 has been reported for CCNC(=O)N1CCN(c2ccnn3cc(-c4ccc(C5(OC)CCCN(C(C)C)C5)cc4)cc23)CC1 (stereo not shown) in the records?
[A] > 7.00

[Q] Which value of pIC50 has been reported for CC(C)N1CC[C@H](c2ccc(-c3cc4c(N5CCN(C(=O)C6CC6)[C@H](C)C5)ccnn4c3)cc2)C1 in the records?
[A] 6.30 to 7.00
